# Tested on: C6
# Protocol Notes: Cytotoxicity against rat C6 cells assessed as cell viability at 6 ug/ml after 24 hrs by MTT assay relative to control
# Assay type: functional
# Condition Label: C6, 24 h, read-out: Activity
Property Name: viability at 6 µg/mL (%)
State just the number; it will be interpreted in %.

Answered examples (3):
Cc1ccc(-c2cs/c(=N/NC(=O)CSc3nnnn3C)n2-c2ccccc2)cc1 = 88
Cn1nnnc1SCC(=O)N/N=c1/scc(-c2ccc(C#N)cc2)n1-c1ccccc1 = 63.5
Cc1nnc(SCC(=O)N/N=c2/scc(-c3ccc(Cl)cc3)n2-c2ccccc2)s1 = 82.8

Query block: // query viability at 6 µg/mL value for entry O=C(CSc1nnnn1-c1ccccc1)N/N=c1/scc(-c2ccccc2)n1-c1ccccc1
Result block: 52.1

Query block: // query viability at 6 µg/mL value for entry Cc1nnc(SCC(=O)N/N=c2/scc(-c3ccccc3)n2-c2ccccc2)s1
Result block: 72.4
